assay: amyloid nucleation score (Sup35N fusion, yeast selection) (log enrichment); library NNK3; higher = more nucleation; inactive = no reads after selection;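 note: zero at mode of non-aggregating sequences after 7 days selection at 30°C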
experimental endpoint: amyloid nucleation score

> print(dat)
               substance     experimental.endpoint    result
 1  WPMMATLQYHDLLLAFLFRK  amyloid nucleation score  inactive
 2  LFFMIVFSLYEFVMCFSSTR  amyloid nucleation score  inactive
 3  WSYHATTPHLRRYRLERSSN  amyloid nucleation score  inactive
 4  FLMHSKVTSCGVWSLYFADV  amyloid nucleation score      1.44
 5  SSNDVVTSYRILCKVSTKAT  amyloid nucleation score    -0.622
 6         YYNDSPAFHLRVR  amyloid nucleation score  inactive
 7   GDSFCFQLGVMCINHVRWY  amyloid nucleation score      1.78
 8         NKKDHAYKWISVD  amyloid nucleation score  inactive
 9  NTGLNFCRASLSWTLGLYSS  amyloid nucleation score  inactive
10      HYWQYMFYSLHFVYRS  amyloid nucleation score  inactive

Please look up its amyloid nucleation score: "EAYEAQD" inactive

Request: "VVKAFYRARELGFRAGLRTD" inactive

Again, but for "EYADTEKVASNVLFFSRLAG" inactive

Proceed to "DQGHRNYINSPRNFLSDKSC" inactive

Now the same for "VCWSHNPRPTDDY" inactive

Similarly, "LTFSSSHCVIMWQFLCKLVG" ? inactive

Also "TVEVNCCYLEGNVV" , if possible. 1.03
